System: UniProtKB P10635
Sequence (P10635 whole entry): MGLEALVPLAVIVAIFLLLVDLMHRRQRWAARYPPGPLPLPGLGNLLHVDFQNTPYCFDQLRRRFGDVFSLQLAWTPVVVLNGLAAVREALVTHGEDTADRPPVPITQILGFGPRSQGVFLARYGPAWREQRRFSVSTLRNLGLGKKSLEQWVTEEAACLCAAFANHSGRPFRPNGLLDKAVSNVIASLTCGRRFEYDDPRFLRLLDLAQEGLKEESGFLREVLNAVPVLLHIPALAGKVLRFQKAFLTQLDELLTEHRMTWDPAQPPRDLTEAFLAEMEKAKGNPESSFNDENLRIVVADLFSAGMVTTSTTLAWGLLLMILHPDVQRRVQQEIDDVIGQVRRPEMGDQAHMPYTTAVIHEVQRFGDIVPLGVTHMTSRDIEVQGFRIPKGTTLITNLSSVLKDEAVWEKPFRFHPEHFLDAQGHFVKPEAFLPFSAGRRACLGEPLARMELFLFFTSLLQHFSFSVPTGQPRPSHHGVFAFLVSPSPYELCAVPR
Measurement protocol: CYP inhibition in HLM, CYP2D6
Details: IC50 (μM), dextromethorphan O-demethylation
Measurement name: IC50 (µM)

{"Molecule": "CC(/C=C/C=C(\\C)C(=O)O)=C\\C=C\\C=C(C)\\C=C\\C=C(/C)C(=O)O [crocetin]", "Measurement name": "IC50", "Measure unit": "µM", "Recorded number": 20.4}

* * *

Measurement protocol: GI permeability, PAMPA
Type: in vitro ADME
Details: pH 7.4
Measurement name: Papp at 5 h, 5 μM (×10⁻⁶ cm/s)

{"Structure string": "CC(/C=C/C=C(\\C)C(=O)O)=C\\C=C\\C=C(C)\\C=C\\C=C(/C)C(=O)O", "Measurement name": "Papp at 5 h, 5 μM", "Measure unit": "×10⁻⁶ cm/s", "Recorded number": 3.89}
